Measured values drawn from patent US11643421B2 for this set.

Assay: Plasma and brain concentrations in GS2 tumor-bearing mice
Type: in vivo
Conditions: mouse, plasma; 2 h post-dose, 15 mg/kg PO; read-out: Plasma
Property Name: concentration at 2 h (µM)
Numeric only. Scale: µM

For record "CC1(C)OCCn2c1nc1c(N3CCOCC3)nc(-c3cnc(N)nc3)nc12" the listed concentration at 2 h is 3.64

###

Experiment: Phase I dose-escalation study, plasma pharmacokinetics
Format: in vivo, human
Details: human, plasma, po, 30 mg, 30 mg single oral dose, Cycle 1 Day 1; read-out: T1/2 (hr), Mean (converted)
Property Name: half-life (h)
# unit: h | format: bare number

Entry "CC1(C)OCCn2c1nc1c(N3CCOCC3)nc(-c3cnc(N)nc3)nc12" — recorded half-life = 22
